Format: in vivo, human
TEST SETTINGS: human, plasma, oral
READOUT: Vd/F

Qu. Look up Vd/F: N#Cc1ccc2c(c1)[C@H]1CCCN(C(=O)c3ccc4[nH]cnc4c3)[C@H]1C2 [BI 187004]
Ans. 195 to 1160 L

====

Format: in vivo, human
TEST SETTINGS: human, plasma, oral, 360 mg
READOUT: AUC(0-t) (µM·h)
Report only the number, with the unit µM·h understood.

Qu. Look up AUC(0-t): N#Cc1ccc2c(c1)[C@H]1CCCN(C(=O)c3ccc4[nH]cnc4c3)[C@H]1C2 [BI 187004]
Ans. 140

====

Type: in vivo, human
TEST SETTINGS: human, plasma and urine, oral, 40 mg
READOUT: CL renal (mL/min)
Report only the number, with the unit mL/min understood.

Qu. Look up CL renal: N#Cc1ccc2c(c1)[C@H]1CCCN(C(=O)c3ccc4[nH]cnc4c3)[C@H]1C2
Ans. 2.68

====

Type: in vivo, human
TEST SETTINGS: human, plasma, oral, 240 mg, C max, 240 mg; Day 1; gMean (%gCV)
READOUT: Cmax

Qu. Look up Cmax: N#Cc1ccc2c(c1)[C@H]1CCCN(C(=O)c3ccc4[nH]cnc4c3)[C@H]1C2 [BI 187004]
Ans. 14.6 µM

====

Assay type: in vivo, human
TEST SETTINGS: human, plasma, oral, 80 mg
READOUT: AUC(0-t) (µM·h)
Report only the number, with the unit µM·h understood.

Qu. Look up AUC(0-t): N#Cc1ccc2c(c1)[C@H]1CCCN(C(=O)c3ccc4[nH]cnc4c3)[C@H]1C2
Ans. 46.5

====

Assay type: in vivo, human
TEST SETTINGS: human, plasma, oral, 80 mg
READOUT: AUC (µM·h)
Report only the number, with the unit µM·h understood.

Qu. Look up AUC: N#Cc1ccc2c(c1)[C@H]1CCCN(C(=O)c3ccc4[nH]cnc4c3)[C@H]1C2 [BI 187004]
Ans. 58.8

====

Assay type: in vivo, human
TEST SETTINGS: human, plasma, oral, 10 mg, t max, SS, 10 mg; Day 14; median (min–max)
READOUT: Tmax (min)
Report only the number, with the unit min understood.

Qu. Look up Tmax: N#Cc1ccc2c(c1)[C@H]1CCCN(C(=O)c3ccc4[nH]cnc4c3)[C@H]1C2 [BI 187004]
Ans. 50

====

Type: in vivo, human
TEST SETTINGS: human, plasma, oral, 360 mg
READOUT: AUC (µM·h)
Report only the number, with the unit µM·h understood.

Qu. Look up AUC: N#Cc1ccc2c(c1)[C@H]1CCCN(C(=O)c3ccc4[nH]cnc4c3)[C@H]1C2
Ans. 162

====

Type: in vivo, human
TEST SETTINGS: human, plasma, oral, 160 mg, t max, SS, 160 mg; Day 14; median (min–max)
READOUT: Tmax (min)
Report only the number, with the unit min understood.

Qu. Look up Tmax: N#Cc1ccc2c(c1)[C@H]1CCCN(C(=O)c3ccc4[nH]cnc4c3)[C@H]1C2 [BI 187004]
Ans. 40

====

Type: in vivo, human
TEST SETTINGS: human, plasma, oral, 80 mg, t max, SS, 80 mg; Day 14; median (min–max)
READOUT: Tmax (h)
Report only the number, with the unit h understood.

Qu. Look up Tmax: N#Cc1ccc2c(c1)[C@H]1CCCN(C(=O)c3ccc4[nH]cnc4c3)[C@H]1C2
Ans. 1.25

====

Assay type: in vivo, human
TEST SETTINGS: human, plasma, oral, 80 mg, C max,SS, 80 mg; Day 14; gMean (%gCV)
READOUT: Cmax (µM)
Report only the number, with the unit µM understood.

Qu. Look up Cmax: N#Cc1ccc2c(c1)[C@H]1CCCN(C(=O)c3ccc4[nH]cnc4c3)[C@H]1C2 [BI 187004]
Ans. 4.93

====

Assay type: in vivo, human
TEST SETTINGS: human, plasma, oral, 20 mg
READOUT: AUC (µM·h)
Report only the number, with the unit µM·h understood.

Qu. Look up AUC: N#Cc1ccc2c(c1)[C@H]1CCCN(C(=O)c3ccc4[nH]cnc4c3)[C@H]1C2
Ans. 23

====

Type: in vivo, human
TEST SETTINGS: human, plasma, oral, 10 mg, C max,SS, 10 mg; Day 14; gMean (%gCV)
READOUT: Cmax

Qu. Look up Cmax: N#Cc1ccc2c(c1)[C@H]1CCCN(C(=O)c3ccc4[nH]cnc4c3)[C@H]1C2
Ans. 1.24 µM

====

Format: in vivo, human
TEST SETTINGS: human, plasma, oral, 240 mg
READOUT: Vd/F (L)
Report only the number, with the unit L understood.

Qu. Look up Vd/F: N#Cc1ccc2c(c1)[C@H]1CCCN(C(=O)c3ccc4[nH]cnc4c3)[C@H]1C2
Ans. 359

====

Format: in vivo, human
TEST SETTINGS: human, plasma and urine, oral, 80 mg
READOUT: CL renal (mL/min)
Report only the number, with the unit mL/min understood.

Qu. Look up CL renal: N#Cc1ccc2c(c1)[C@H]1CCCN(C(=O)c3ccc4[nH]cnc4c3)[C@H]1C2 [BI 187004]
Ans. 3.47

====

Type: in vivo, human
TEST SETTINGS: human, plasma and urine, oral, 360 mg
READOUT: CL renal (mL/min)
Report only the number, with the unit mL/min understood.

Qu. Look up CL renal: N#Cc1ccc2c(c1)[C@H]1CCCN(C(=O)c3ccc4[nH]cnc4c3)[C@H]1C2
Ans. 6.4

====

Format: in vivo, human
TEST SETTINGS: human, plasma, oral, 360 mg, C max, 360 mg; Day 1; gMean (%gCV)
READOUT: Cmax
The reply should read as a number followed by its unit.

Qu. Look up Cmax: N#Cc1ccc2c(c1)[C@H]1CCCN(C(=O)c3ccc4[nH]cnc4c3)[C@H]1C2
Ans. 14.3 µM

====

Type: in vivo, human
TEST SETTINGS: human, plasma, oral, 20 mg
READOUT: half-life (h)
Report only the number, with the unit h understood.

Qu. Look up half-life: N#Cc1ccc2c(c1)[C@H]1CCCN(C(=O)c3ccc4[nH]cnc4c3)[C@H]1C2 [BI 187004]
Ans. 69.2

====

Assay type: in vivo, human
TEST SETTINGS: human, plasma, oral, 240 mg
READOUT: half-life (days)
Report only the number, with the unit days understood.

Qu. Look up half-life: N#Cc1ccc2c(c1)[C@H]1CCCN(C(=O)c3ccc4[nH]cnc4c3)[C@H]1C2
Ans. 2.15

====

Assay type: in vivo, human
TEST SETTINGS: human, plasma, oral, 240 mg, t max, 240 mg; Day 1; median (min–max)
READOUT: Tmax (h)
Report only the number, with the unit h understood.

Qu. Look up Tmax: N#Cc1ccc2c(c1)[C@H]1CCCN(C(=O)c3ccc4[nH]cnc4c3)[C@H]1C2 [BI 187004]
Ans. 1

====

Format: in vivo, human
TEST SETTINGS: human, plasma, oral, 10 mg
READOUT: Vd/F (L)
Report only the number, with the unit L understood.

Qu. Look up Vd/F: N#Cc1ccc2c(c1)[C@H]1CCCN(C(=O)c3ccc4[nH]cnc4c3)[C@H]1C2
Ans. 308

====

Type: in vivo, human
TEST SETTINGS: human, plasma and urine, oral, 10 mg
READOUT: CL renal (mL/min)
Report only the number, with the unit mL/min understood.

Qu. Look up CL renal: N#Cc1ccc2c(c1)[C@H]1CCCN(C(=O)c3ccc4[nH]cnc4c3)[C@H]1C2
Ans. 3.72

====

Format: in vivo, human
TEST SETTINGS: human, plasma, oral, 40 mg
READOUT: half-life (h)
Report only the number, with the unit h understood.

Qu. Look up half-life: N#Cc1ccc2c(c1)[C@H]1CCCN(C(=O)c3ccc4[nH]cnc4c3)[C@H]1C2
Ans. 42.8

====

Format: in vivo, human
TEST SETTINGS: human, plasma and urine, oral, 160 mg
READOUT: CL renal (mL/min)
Report only the number, with the unit mL/min understood.

Qu. Look up CL renal: N#Cc1ccc2c(c1)[C@H]1CCCN(C(=O)c3ccc4[nH]cnc4c3)[C@H]1C2
Ans. 3.78

====

Format: in vivo, human
TEST SETTINGS: human, plasma, oral, 20 mg, t max, 20 mg; Day 1; median (min–max)
READOUT: Tmax (min)
Report only the number, with the unit min understood.

Qu. Look up Tmax: N#Cc1ccc2c(c1)[C@H]1CCCN(C(=O)c3ccc4[nH]cnc4c3)[C@H]1C2
Ans. 50

====

Assay type: in vivo, human
TEST SETTINGS: human, plasma, oral, 240 mg, C max,SS, 240 mg; Day 14; gMean (%gCV)
READOUT: Cmax (µM)
Report only the number, with the unit µM understood.

Qu. Look up Cmax: N#Cc1ccc2c(c1)[C@H]1CCCN(C(=O)c3ccc4[nH]cnc4c3)[C@H]1C2
Ans. 15

Where do these numbers come from? They come from paper PMC9811530.
